Test system: NCI-H226 lung
Experiment: NCI tumour cell line growth inhibition, 48 h
Observation Type: TGI

Compound	Observation Type	Reported Result
C[C@H]1Oc2cc(cnc2N)-c2c(nn(C)c2C#N)CN(C)C(=O)c2ccc(F)cc21	TGI	> 100 µM
O=C(CCc1cc(O)cc(O)c1)NCCc1cc(O)cc(O)c1	TGI	> 100 µM
Oc1cc(O)c2c(c1)OC(c1ccc(O)c(O)c1)C(OC1(c3cc(O)c(O)c(O)c3)Oc3cc(O)cc(O)c3C(O)C1O)C2 (centres undefined)	TGI	50.9 µM
Cc1ccsc1/C=N/Nc1ccc2ccccc2n1	TGI	> 100 µM

[Q] Please report the recorded TGI for "O=C(NS(=O)(=O)OCC(Cl)(Cl)Cl)SCCC(F)(F)C(F)(F)C(F)(F)C(F)(F)C(F)(F)C(F)(F)F" .
[A] 70.7 µM

[Q] Same thing, different compound: C=CC(=O)N1CCC(C2CCNc3c(C(N)=O)c(-c4ccc(Oc5ccccc5)cc4)nn32)CC1 (centres undefined)
[A] 69.4 µM

[Q] Same thing, different compound: "Cc1csc(Nc2nc(-c3cccc(Br)c3)nc(C(Cl)(Cl)Cl)n2)n1"
[A] > 100 µM

[Q] Same thing, different compound: "NCCCNCCCCNCCCN"
[A] > 100 µM

[Q] Same thing, different compound: Cc1c(CNc2ccc(C(=O)NC(CC(=O)O)C(=O)O)cc2)ccc2nc(N)nc(N)c12 (centres undefined)
[A] > 1000 µM

###

Tested on: SNB-75 CNS
Experiment: NCI tumour cell line growth inhibition, 48 h
Observation Type: GI50

Before answering, review these 3 worked examples.
Compound	Reported Result
CCCCCCNC(=O)c1nc(-c2ccccc2)oc1Cc1ccc(OP(=O)(O)O)cc1	13.1 µM
COC12C=C/C(=C(/C(=O)OCc3ccncc3)C(=O)CCCCCCCCC3(OC)C=C/C(=C(/C(=O)OCc4ccncc4)C(=O)CCCCCCCC1)O3)O2	0.779 µM
COc1ccccc1N1CCN(CCCn2c(=O)c3c(OC)nc(C)cc3c(=O)n2-c2ccccc2)CC1	> 100 µM

Then this compound:
[Q] Please report the recorded GI50 for CCN(CC)CCOc1ccc(/C=C2\CC3C4CC=C5C[C@@H](O)CC[C@]5(C)C4CC[C@]3(C)C2=O)cc1OC (some centres undefined) .
[A] 15.6 µM

###

Test system: MCF7 breast
Experiment: NCI tumour cell line growth inhibition, 48 h
Observation Type: TGI (µM)
Answer in µM, number only, no unit symbol.

Compound	Test System	Reading Unit	Reported Result
CCN1CCN=c2c3cc(OC)ccc3n3cnc4ccc1c2c43	MCF7 breast	µM	0.993

[Q] Please report the recorded TGI for CC[C@]1(Cc2ccc(OC)c(OC)c2)[C@@H]2C[C@@H](C3OCCO3)ON2O[C@H](OC2CCCC2(c2ccccc2)c2ccccc2)[C@@H]1OC(C)=O (stereo partly drawn) .
[A] 41.1

###

System: RXF 393 renal
Test: NCI tumour cell line growth inhibition, 48 h
Reported values of TGI for individual entries
Answer in µM, number only, no unit symbol.

Before answering, review these 8 worked examples.
Compound	Test System	Reading Unit	TGI
Cc1c(O)c(C)c2c(C)cn(C(=O)C(C)(C)C)c2c1C	RXF 393 renal	µM	41.6
COc1ccc(-c2oc(=O)ccc2-c2cc(OC)c(OC)c(OC)c2)cc1F	RXF 393 renal	µM	29.1
C[C@@]12CCC3C1C=C1C(=O)c4cc(O)ccc4C(=O)[C@]1(O2)[C@@]3(C)C=O	RXF 393 renal	µM	14.1
COC12C=C/C(=C(/C(=O)OCc3ccncc3)C(=O)CCCCCCCCC3(OC)C=C/C(=C(/C(=O)OCc4ccncc4)C(=O)CCCCCCCC1)O3)O2	RXF 393 renal	µM	0.896
CCN(CC)C(=S)SS(=O)(=O)c1ccc(F)cc1	RXF 393 renal	µM	40.4
O=C(NCCCCN=c1cccccc1NCCCCNC(=O)OCc1ccccc1)OCc1ccccc1	RXF 393 renal	µM	40.4
O=C1c2ccccc2C2(O)c3cc4ccccc4cc3OC12O (stereo unspecified)	RXF 393 renal	µM	97.6
C#CCN(CC#C)C(=O)C(=O)c1c[nH]c2ccc(OC)cc12	RXF 393 renal	µM	29.8

[Q] Please report the recorded TGI for "Nc1c(C(=O)Nc2cccc(Br)c2)sc2nc3c(cc12)C(=O)CCC3" .
[A] 15.9
